# tgt: histamine H4 receptor (Homo sapiens)
# assay_procedure: In vitro histamine H4 potency in FLIPR (Ca2+ flux, HEK-293 cells coexpressing Gαqi5)
# Assay type: cell-based
# Parameters: expressed in transfected cells
# condition_set: Kb for antagonists and inverse agonists, EC50 for partial agonists
property_name: Potency (nM)
Response body: numeric value in nM, unit text excluded.

query: For the molecule CN[C@@H]1CCN(c2nc(N)nc3c2CC(C)c2ccccc2-3)C1 (stereo partly drawn) , report Potency.
result: 18

====

# tgt: histamine H4 receptor (Homo sapiens, UniProt Q9H3N8)
# Sequence (Q9H3N8 whole entry): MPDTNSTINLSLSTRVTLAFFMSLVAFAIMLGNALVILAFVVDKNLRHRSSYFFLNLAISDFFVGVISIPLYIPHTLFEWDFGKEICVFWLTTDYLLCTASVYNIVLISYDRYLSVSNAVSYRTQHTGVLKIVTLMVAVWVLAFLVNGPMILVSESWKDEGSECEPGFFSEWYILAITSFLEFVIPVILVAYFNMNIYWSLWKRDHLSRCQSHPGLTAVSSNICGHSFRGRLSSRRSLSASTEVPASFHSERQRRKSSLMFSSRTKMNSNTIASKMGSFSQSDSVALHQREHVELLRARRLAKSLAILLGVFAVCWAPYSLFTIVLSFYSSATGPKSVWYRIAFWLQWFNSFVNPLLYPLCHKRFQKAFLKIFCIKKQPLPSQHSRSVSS
# assay_procedure: In vitro histamine H4 potency in FLIPR (Ca2+ flux, HEK-293 cells coexpressing Gαqi5)
# Type: cell-based
# Set-up: expressed in transfected cells
# condition_set: Kb for antagonists and inverse agonists, EC50 for partial agonists
property_name: Potency (nM)
Respond with the bare value in nM.

The examples below pair each entry with its known result.
COC(=O)N(C)c1ccc2c(c1)-c1nc(N)nc(N3CC4CCCNC4C3)c1CCC2 (stereo not shown) ... 164
Nc1nc2c(c(N3CCC(N)CC3)n1)CCCc1ccccc1-2 ... 389
Nc1nc2c(c(N3C[C@H]4CNC[C@H]43)n1)CCCc1ccccc1-2 ... 12

query: Return value of Potency for input NCCCC(=O)Nc1nc2c(c(N3CCNCC3)n1)CCCc1ccccc1-2 , no commentary.
result: 550
